biological target: human EP1 receptor (Homo sapiens, UniProt P34995); construct: expressed in transfected cells; host or cells: CHO-K1 cells; experiment: human EP1 calcium mobilisation assay; format: cell-based; conditions: antagonism of PGE2-induced calcium mobilisation, CHO-K1 cells expressing human EP1; averages of a number of experiments; read-out: functional pKi value (converted)
Sequence (P34995 whole entry): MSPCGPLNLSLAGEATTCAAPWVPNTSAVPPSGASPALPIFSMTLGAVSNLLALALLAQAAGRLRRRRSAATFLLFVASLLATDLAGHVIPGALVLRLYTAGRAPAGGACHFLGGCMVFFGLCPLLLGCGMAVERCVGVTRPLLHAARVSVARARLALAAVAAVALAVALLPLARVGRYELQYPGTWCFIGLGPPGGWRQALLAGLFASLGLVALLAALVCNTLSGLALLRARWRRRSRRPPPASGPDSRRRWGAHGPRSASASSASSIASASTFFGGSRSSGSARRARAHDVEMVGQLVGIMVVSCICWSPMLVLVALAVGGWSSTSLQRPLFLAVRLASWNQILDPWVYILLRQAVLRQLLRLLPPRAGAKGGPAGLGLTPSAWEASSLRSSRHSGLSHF
Counter-ions that a name gives are not always drawn.
compounds and their reported Ki
readout.kind: Ki

# compound, readout.kind, result
measured = [
    ("O=C(NN1CCOCC1)c1coc(-c2cn(C3CCCC3)c3ccc(Cl)cc23)n1", "Ki", "≤ 316 nM"),
    ("O=C(NN1CCOCC1)c1coc(-c2cn(CC3CC3)c3ccc(Cl)cc23)n1", "Ki", "≤ 1000 nM"),
    ("CC(C)Cn1cc(-c2nc(-c3nc4ncccc4[nH]3)co2)c2cc(Cl)ccc21", "Ki", "≤ 1000 nM"),
    ("O=C(c1coc(-c2cn(C3CCCC3)c3ccc(Cl)cc23)n1)N1CCOCC1", "Ki", "≤ 1000 nM"),
    ("CC(C)Cn1cc(-c2nc(-c3nc4ccccc4[nH]3)co2)c2cc(Cl)ccc21 [Example 9, hydrochloride]", "Ki", "≤ 316 nM"),
]

Recorded values, source patent US20100004240A1.
